Each record here notes measured PAMPA_R1.
- particulars: PAMPA
Where a SMILES comes first, the peptide text is derived from it. [ ]: non-standard residue; d: D form. dNMeF = CN[C@H](Cc1ccccc1)C(=O)O; NMeL = CN[C@@H](CC(C)C)C(=O)O; dNMeL = CN[C@H](CC(C)C)C(=O)O; NMeA = CN[C@@H](C)C(=O)O
Would you mind answering with just the numeric figure?

See these solved cases before continuing.
compound: CC[C@@H](C)[C@H]1NC(=O)[C@H](CC(C)C)NC(=O)[C@@H](CC(C)C)NC(=O)[C@H](C(C)C)NC(=O)[C@@H](Cc2ccccc2)N(C)C(=O)[C@@H]2CCCN2C(=O)[C@@H](CC(C)C)NC(=O)[C@H](CC(C)C)N(C)C(=O)[C@H]2CCCN2C1=O [Design D9.3] (cyclo(L[dI][dP][NMeL][dL]P[dNMeF]V[dL]))
endpoint.result: 3.06E-06

compound: CC(C)C[C@@H]1C(=O)N[C@@H](C)C(=O)N[C@H](CC(C)C)C(=O)N2CCC[C@H]2C(=O)N[C@H](C)C(=O)N2CCC[C@@H]2C(=O)N2CCC[C@H]2C(=O)N[C@H](C(C)C)C(=O)N[C@H](CC(C)C)C(=O)N(C)[C@H](CC(C)C)C(=O)N1C [Design D10.43] (cyclo([dV][dL][dNMeL][dNMeL]A[dL]P[dA][dP]P))
endpoint.result: 1.81E-07

compound: CC(C)C[C@@H]1C(=O)N[C@H](Cc2ccccc2)C(=O)N2CCC[C@@H]2C(=O)N2CCC[C@@H]2C(=O)N2CCC[C@H]2C(=O)N[C@H](C(C)C)C(=O)N(C)[C@@H](C)C(=O)N(C)[C@@H](C)C(=O)N(C)[C@H](CC(C)C)C(=O)N1C [Design D9.25] (cyclo([dV][NMeA][NMeA][dNMeL][dNMeL][dF][dP][dP]P))
endpoint.result: 2.32E-06

Moving on to another compound below.
For the compound shown here, CC(C)C[C@H]1NC(=O)[C@@H]2CCCN2C(=O)[C@H]2CCCN2C(=O)[C@H](C(C)C)NC(=O)[C@@H](CC(C)C)NC(=O)[C@@H]2CCCN2C(=O)[C@H]2CCCN2C(=O)[C@H](C(C)C)NC1=O (single isomer, unassigned) [D8.12 p1, DLEU VAL DPRO PRO DLEU VAL DPRO PRO] , give the reported PAMPA_R1.
1.52E-07

====

- Tested on: Caco-2 cells
- assay.summary: Caco-2 permeability assay (apical to basolateral)
- Format: in vitro ADME, human
- particulars: Caco-2
Where a SMILES comes first, the peptide text is derived from it. [ ]: non-standard residue; d: D form. NMeL = CN[C@@H](CC(C)C)C(=O)O; dNMeL = CN[C@H](CC(C)C)C(=O)O; dNMeA = CN[C@H](C)C(=O)O
measured.attribute: Caco_R3
Please respond with just the number, no unit label.

compound: CC(C)C[C@@H]1NC(=O)[C@H](Cc2ccccc2)NC(=O)[C@@H](CC(C)C)NC(=O)[C@H]2CCCN2C(=O)[C@H](C(C)C)NC(=O)[C@@H](CC(C)C)NC(=O)[C@H]2CCCN2C(=O)[C@@H]2CCCN2C1=O [Design D8.5.p2, PHE LEU PRO DPRO DLEU VAL DPRO DLEU] (cyclo(FLP[dP][dL]V[dP][dL]))
measured.attribute: Caco_R3
endpoint.result: 20.36

Query: Caco_R3; subject: CC(C)C[C@@H]1NC(=O)[C@H](CC(C)C)N(C)C(=O)[C@H]2CCCN2C(=O)[C@@H](C)NC(=O)[C@@H](C)N(C)C(=O)[C@@H](C(C)C)NC(=O)[C@@H](CC(C)C)N(C)C(=O)[C@@H]2CCCN2C1=O [Design D8.30, DALA DPRO *LEU LEU PRO *DLEU DVAL *DALA] (cyclo(LP[dNMeL][dV][dNMeA][dA][dP][NMeL]))
2.89

Recorded Caco_R3 for CC[C@H](C)[C@@H]1NC(=O)[C@@H](CC(C)C)NC(=O)[C@H](CC(C)C)N(C)C(=O)[C@H](Cc2ccccc2)NC(=O)CN(C)C(=O)[C@@H]2CCCN2C(=O)[C@H](C(C)C)NC(=O)[C@H](Cc2ccccc2)N(C)C(=O)[C@H]2CCCN2C(=O)[C@H](CC(C)C)NC1=O (single isomer, unassigned) [Design D10.1.p1] , please?
8.51

====

- particulars: PAMPA
Where a SMILES comes first, the peptide text is derived from it. [ ]: non-standard residue; d: D form. dNMeF = CN[C@H](Cc1ccccc1)C(=O)O; NMeL = CN[C@@H](CC(C)C)C(=O)O; dNMeL = CN[C@H](CC(C)C)C(=O)O; NMeA = CN[C@@H](C)C(=O)O; dNMeA = CN[C@H](C)C(=O)O
measured.attribute: PAMPA_R1
Answer using only a numeral; do not append any unit.

compound: CC[C@@H](C)[C@H]1NC(=O)[C@@H](CC(C)C)N(C)C(=O)[C@@H]2CCCN2C(=O)[C@H]([C@@H](C)CC)NC(=O)[C@H]([C@@H](C)CC)N(C)C(=O)[C@@H](CC(C)C)NC(=O)[C@@H](C(C)C)N(C)C(=O)[C@H]2CCCN2C(=O)[C@@H](C(C)C)NC(=O)[C@@H]2CCCN2C(=O)[C@H]([C@@H](C)CC)NC1=O (single isomer, unassigned) [Design D11.23.p1]
measured.attribute: PAMPA_R1
endpoint.result: 1.22E-06
--
compound: CC[C@@H](C)[C@H]1NC(=O)[C@@H]2CCCN2C(=O)[C@@H](CC(C)C)N(C)C(=O)[C@@H](C(C)C)NC(=O)[C@@H]2CCCN2C(=O)[C@@H](CC(C)C)N(C)C(=O)[C@H](C)N(C)C(=O)[C@@H](C)NC1=O [Design D8.18, DILE DALA *ALA *DLEU PRO DVAL *DLEU PRO] (cyclo([NMeA][dNMeL]P[dV][dNMeL]P[dI][dA]))
measured.attribute: PAMPA_R1
endpoint.result: 1.31E-06
--
compound: CC(C)[C@@H]1NC(=O)[C@H]2CCCN2C(=O)[C@@H](C(C)C)NC(=O)[C@@H]2CCCN2C(=O)[C@H](Cc2ccccc2)NC(=O)[C@H](Cc2ccccc2)NC(=O)[C@H]2CCCN2C(=O)[C@@H](C(C)C)NC(=O)[C@@H]2CCCN2C(=O)[C@H](C(C)C)NC1=O [Design D10.27] (cyclo(FFP[dV][dP]VVP[dV][dP]))
measured.attribute: PAMPA_R1
endpoint.result: 5.18E-07
--
compound: CC[C@@H](C)[C@H]1NC(=O)[C@H]2CCCN2C(=O)[C@@H]2CCCN2C(=O)[C@@H]([C@H](C)CC)NC(=O)[C@@H](Cc2ccccc2)NC(=O)[C@@H](Cc2ccccc2)N(C)C(=O)[C@@H]2CCCN2C(=O)[C@@H](C(C)C)NC1=O [Design D8.33, DPHE DILE PRO DPRO DILE DVAL PRO *DPHE] (cyclo(P[dNMeF][dF][dI]P[dP][dI][dV]))
measured.attribute: PAMPA_R1
endpoint.result: 5.91E-06

Here is another compound to look at.
Fill in: PAMPA_R1 of CC(C)C[C@@H]1NC(=O)[C@H](CC(C)C)N(C)C(=O)[C@H]2CCCN2C(=O)[C@@H](C)NC(=O)[C@@H](C)N(C)C(=O)[C@@H](C(C)C)NC(=O)[C@@H](CC(C)C)N(C)C(=O)[C@@H]2CCCN2C1=O [Design D8.30, DALA DPRO *LEU LEU PRO *DLEU DVAL *DALA] (cyclo(LP[dNMeL][dV][dNMeA][dA][dP][NMeL])) is ___
4.61E-06

====

- particulars: PAMPA
Where a SMILES comes first, the peptide text is derived from it. [ ]: non-standard residue; d: D form. dNMeF = CN[C@H](Cc1ccccc1)C(=O)O

molecule: CC(C)C[C@@H]1NC(=O)[C@@H](C(C)C)NC(=O)[C@H](CC(C)C)N(C)C(=O)[C@H]2CCCN2C(=O)[C@@H](C(C)C)NC(=O)[C@H]2CCCN2C(=O)[C@@H](C(C)C)NC(=O)[C@@H](Cc2ccccc2)N(C)C(=O)[C@H](CC(C)C)N(C)C1=O (single isomer, unassigned) [Design D9.8.p2]
PAMPA_R1: 1.16E-06
--
molecule: CC(C)[C@H]1NC(=O)[C@H](C)NC(=O)[C@@H]2CCCN2C(=O)[C@H]2CCCN2C(=O)[C@@H](C(C)C)NC(=O)[C@H]2CCCN2C(=O)[C@@H](C)NC(=O)[C@@H](Cc2ccccc2)N(C)C(=O)[C@H](Cc2ccccc2)NC1=O [Design D9.35] (cyclo(A[dV]F[dNMeF][dA][dP][dV][dP]P))
PAMPA_R1: BQL
